assay: soluble on expression in E. coli; label from the status in PepcDB or PDB records
reported.endpoint: soluble on expression in E. coli

seq | reported.endpoint | recorded.result
MGSDKIHHHHHHMDSYFLGVSLESLKSLPRQTNHLRLGLAMWSHYHWQDSVYGSTTKQAERLARYATIFNTVEGNTSFYATPNAQTMMNWLRATPDDFRFTFKLPQTITHQKQLQHCQQELLQFFQVMSPLAEKTGLWKIQLPAHFGPENLPALAQFLNQVPQGLTYGVEVRHAAFFAKGEAERALNRLLMDKQVNRIIMDSRPLFALPPANEAIIDTHKKKPRVPVHAIATANTPVVRFIGQPDDACSCTTRAARR | soluble on expression in E. coli | not soluble
MGSDKIHHHHHHMLYDVAIIGGGPSGAAAAEILARAGHSTILIERNLANVKPCGGAIPLGLIEEFDIPDELVEKKLTRMSVRSPKGETIFMHMPNGYVGMVRRERFDRYLREKAQKAGAEVVEALVKKIERSVDRFTLQLFNKEGEALPPVEASYVIGADGANSKTADELGFPPNDLKVIAMQQRFHYCDELKPYEELVEIWFDGEVSPDFYGWIFPKTDHIAIGTGTEEHRNDIKQLQHRFVEKIGIAEKPYLNEAAKIPMKPRRSFTQERAILVGDAAGLVTPANGEGIFFAMRSGKLGAEAMIERIRNNTPLSSYEKKFRKLYSPIFFGLQVLQSVYYKSDRLRESFVAICRDKDVQGITFDSYLYKKMVPAPWSVQMKIMAKNIYHLAKGS | soluble on expression in E. coli | not soluble
MSLDGEQTTREPVLKAMFLADTHLLGEFLGHWLDKLRREWQMERAFQTALWLLQPEVVFILGDIFDEGKWSTPEAWADDVERFQKMFRHPSHVQLKVVAGNHDIGFHYEMNTYKVERFEKVFSSERLFSWKGINFVMVNSVALNGDGCGICSETEAELIEVSHRLNCSREARGSSRCGPGPLLPTSAPVLLQHYPLYRRSDANCSGEDAAPAEERDIPFKENYDVLSREASQKLLWWLQPRLVLSGHTHSACEVHHGGRVPELSVPSFSWRNRNNPSFIMGSITPTDYTLSKCYLPREEGHHHHHH | soluble on expression in E. coli | not soluble

* * *

assay: soluble on expression in E. coli; label from the status in PepcDB or PDB records
reported.endpoint: soluble on expression in E. coli

Illustrative cases are given below, each with its answer.
seq | reported.endpoint | recorded.result
MNFIVIGAGNIGSGIAQNLLEDGHEVEIADKSRESLNRIRGRNPKIRTREFDVMDRSAYRMLNDYDASVSALPGSIGMQFLKNVAKMGKIVVDVSYMEEDPYDLNGIAQSAGTIIVPDMGFAPGLTNAIVGYFSADLDQIRNVKIYVGGIPEKPVPPLDYTITWSVEGLIDEYTRPVRIVRNGTEDHVPALSGIERIGVGNYADMEAFYTDGLRSLIRNIKCTGEMFEKTIRYPGHAEKMAAIRDLGYFDRIKVDGCNLTMFEISEQIFMEKLFRPDIQDVVLMKVEVSGTKLGREVTRTAEMQTGYDSSRKRTAMDMATSLPASITAEFLSSNGKITSGIVFPEILGKTQNYFEYLVNNMKKKGINVNISVK | soluble on expression in E. coli | not soluble
MGHHHHHHHHHHSSGHIDDDDKHMVGATVAPSSRRDFTFDLYRALASAAPSQNIFFSPVSISMSLAMLSLGAGSSTKMQILEGLGLNLQKSSEKELHRGFQQLLQELNQPRDGFQLSLGNALFTDLVVDLQDTFVSAMKTLYLADTFPTNFRDSAGAMKQINDYVAKQTKGKIVDLLKNLDSNAVVIMVNYIFFKAKWETSFNHKGTQEQDFYVTSETVVRVPMMSREDQYHYLLDRNLSCRVVGVPYQGNATALFILPSEGKMQQVENGLSEKTLRKWLKMFKKRQLELYLPKFSIEGSYQLEKVLPSLGISNVFTSHADLSGISNHSNIQVSEMVHKAVVEVDESGTRAAAATGTIFTFRSARLNSQRLVFNRPFLMFIVDNNILFLGKVNRP | soluble on expression in E. coli | soluble
MLYIFTPTFNRGYRLSYLYDSLCNQTNKNFIWLIVDDGSEDSTKEIVSNYIKENKVSIVYLYKRNGGKHSAYNLAMRYMQPSDYHVCVDSDDWLLEDAVEIIFKDLESLTLSNRYVGLVYPRYSLNQGNNWLNPKILEVNIPDLKYKYHLKIETCIVINNAYLVDFEFPCFEGENFLSEEIMYIYLSKKGYFCPQNRKIYCFDYLEDGLTSNIFKLWRKNFKGTIFSLENSYMYVMSFPNIFDRWWSAIKIKMNIQALKMTTLGVIPTLKSEEAGWKILLGFSYLWKVARFKKSELEHHHHHH | soluble on expression in E. coli | soluble
MAHHHHHHMEVREGEPPQSWTYKAVCMTLEKDDGVEQSGAPRLRLMVLTSEKGWPYSWRWKENKSTRDCHVNCEVDRVWRTVKGDLTKWFSRRAKNKLSPRRRLLVGTPWIGNSMAADSYLLYQLLHGDAEKLQVAVYSFGSQSFLFDKTTQAVREYVDTTKSKRVFFFWQL | soluble on expression in E. coli | soluble

Moving on to another sequence below.
Query block: Would you mind telling me what soluble on expression in E. coli value was observed for MLKEVPIKRRQSTKIYVGNVPVGGDAPIAVQSMTNTRTTDIEATIAQIKALERVGADIVRVSVPTMDAAEAFKVIKQQVNVPLVADIHFDYRIALKVAEYGVDCLRINPGNIGNEERIRAVVDCAKDKNIPIRIGVNAGSLERDLQEKYGEPTPQALLESALRHVEILDRFNFDQFKVSVKASDVFLAVESYRLLAKAIKQPIHLGITEAGGARAGSVKSAIGLGLLLSEGIGDTLRVSLAADPVDEVKVGFDILKSLRIRSRGINFVACPTCSRQEIDVIATVNALEQRLEDILTPMDVSIIGCVVNGPGEALVSDLGVTGSNKMSGFYLDGVRQKERFDNDKLIDQLEAKIRAKVAQQHHRIAIEQILEHHHHHH ?
Result block: not soluble

* * *

experiment: soluble on expression in E. coli; label from the status in PepcDB or PDB records

seq | soluble on expression in E. coli
MNYKSPVYNVTPIHYTKLQANNYNPNTVPATELKLLEKSIWEDGFTQPIVCYPLENSDKYEIIDGFHRYTIMQTSKRIREREKELLPVVILEKDTVNRIASTIRHNRARGFHNVELMSSIVGELADSGMSDSWIMKNIGMDANEILRLKQVSGLTHLFLDKEFSKASD | not soluble
MGSDKIHHHHHHMYYLSFSISSNCGLSAAAEHLQNKIVTLNVINSTDFNTVIAFTLARDIDAMRNDFAKDFKTVYIARGKKAAFINGTKISHGIVPAMISEQIIPLYPIFAENGSEWFNAIVLEKEHIDNFVALIEKKNNIETLDYERIRNGDSMFSIIKNANRGIFTLELTETERRIVNSSLRQGFFSWPRSYDLTSISREFGLTKPTILYHIRNAERKVMEALFGS | not soluble

* * *

assay: soluble on expression in E. coli; label from the status in PepcDB or PDB records
reported.endpoint: soluble on expression in E. coli

seq | reported.endpoint | recorded.result
ESRSQISRRNQDMLLSVLDLEKVSVNDIMVPRNEIVGIDINDDWKSIVRQLTHSPHGRIVLYRDSLDDAISMLRVREAYRLMTEKKEFTKEIMLRAADEIYFVPEGTPLSTQLVKFQRNKKKVGLVVDEYGDIQGLVTVEDILEEIVGDFTTSMSPTLAEEVTPLNDGTVIIDGSANVREINKAFNWHLPEDEARTVNGII | soluble on expression in E. coli | soluble
MINIAVDNSIKITIETTVNAPIDMVWEAWTEPEHIKSWNHASDDWHTTEAKNDLRVGGRFVSKMEAKDGSFGFDFGGTYNKVRLYEFISYIMDDDRSVEITFKPEKDKTYIVESFEAEKSNPIDLQQKGWQAILDNFKKYVEENKLRGREKLEHHHHHH | soluble on expression in E. coli | soluble
MGHHHHHHSHSPGSASGGSREYKVVMLGAGGVGKSAMTMQFISHQFPDYHDPTIEDAYKTQVRIDNEPAYLDILDTAGQAEFTAMREQYMRGGEGFIICYSVTDRQSFQEAAKFKELIFQVRHTYEIPLVLVGNKIDLEQFRQVSTEEGLSLAQEYNCGFFETSAALRFCIDDAFHGLVREIRKKESMP | soluble on expression in E. coli | soluble

* * *

assay: soluble on expression in E. coli; label from the status in PepcDB or PDB records

seq | soluble on expression in E. coli
MKKLTLREQQLVCLNILDYFHALCERYKISYSLGGGTLIGAIRHKGFIPWDDDIDVYMHRDEYQRFVDVWFQETHEHYNMETAEDILAQYTGEMAKIFDCRTQITDAKGRKSPMFMDIFIYDGVPNEPKIIYPLMKKHRRIKLRFSSCKKRWLRAKENTVQKAILNKLSHFLFSKMQKNLAQFQIKYPIKQCDYIGLVLSDYGGWQKSYMPKEYFNHVIYKEFEGRQFQVMNGYHEHLTQYYGDYMKLPPEEDQKPHHIQEAYILLEHHHHHH | not soluble
MAHHHHHHMKCVLVVHSGGERMQRSCDLPDGVSTQEQLRAFVRSQDLRLESLDFTFAASLVRLTAGAAEKKGEKVVLREDADVQQLLKTAKQQRATHVLTFEVTISMSSSSPRNLGSFLSAEYAVDKDLVTLHVFAPLACPSRGKNPSYQEKMFIIPTRCVLESLARAVEDTLSIKLTNSGMKLVLYTMPQQPNGDQVEILYDTSALELLRQHTSQSTPGSTHLRHPYANPENYV | not soluble
MKIQCDVCEKAPATVICCADEAALCPQCDIEIHAANKLASKHQRLHLNSLSTKFPRCDICQEKAAFIFCVEDRALLCRDCDESIHVANSRSANHQRFLATGIKVALTSTICSKEIEKNQPEPSNNQQKANQIPAKSTSQQQQQPSSATPLPWAVDDFFHFSDIESTDKKGQLDLGAGELDWFSDMGFFGDQINDKALPAAEVPELSVSHLGHVHSYKPMKSNVSHKKPRFETRYDDDDEEHFIVPDLG | not soluble
